Parameter concentration at 12 h: see the listing below.
- Test Description: Cmax in Swiss-Webster mouse spleen at 10 mg/kg, ip after 12 hrs by UPLC-MS/MS analysis
- Format: ADME, organism-based
- Design: dose 10 mg/kg, route intraperitoneal
- Conditions Used: read-out: Cmax
State the answer as a number, implicitly in µM.

[
  {
    "Structure": "CC(C)Nc1nc(NCc2ccccc2)nc2ccccc12",
    "concentration at 12 h / µM": 0.18
  }
]

Now for the compound whose concentration at 12 h we want.
Lab book: concentration at 12 h of `Clc1ccc(CNc2nc(NCc3ccccc3)c3ccccc3n2)cc1` noted as 11.4

Where do the numbers come from? From ChEMBL document CHEMBL3596114.
